assay: Oral bioavailability in Sprague-Dawley rat at 20 mg/kg measured upto 480 mins by LC-MS/MS analysis; type: ADME, organism-based; settings: in vivo
PROPERTY_LABEL: bioavailability (%)

[[record]]
structure_smiles = "COc1cc(OC)c(OC)cc1/C=C/COC(=O)/C=C/c1c(OC)cc(OC)c(OC)c1OC"
measured_result = 43.4

[[record]]
structure_smiles = "COc1cc(OC)c(OC)cc1/C=C/COC(=O)/C=C/c1cc(OC)c(OC)c(OC)c1OC"
measured_result = 41.3


---

assay: Cmax in Sprague-Dawley rat at 20 mg/kg, iv measured upto 480 mins by LC-MS/MS analysis; assay type: ADME, organism-based; design: dose 20 mg/kg, route intravenous; details: in vivo
PROPERTY_LABEL: Cmax (ng/mL)

[[record]]
structure_smiles = "COc1cc(OC)c(OC)cc1/C=C/COC(=O)/C=C/c1cc(OC)c(OC)c(OC)c1OC"
property_label = "Cmax"
measured_result = 6220

[[record]]
structure_smiles = "COc1cc(OC)c(OC)cc1/C=C/COC(=O)/C=C/c1c(OC)cc(OC)c(OC)c1OC"
property_label = "Cmax"
measured_result = 6480


---

assay: Half life in Sprague-Dawley rat at 20 mg/kg, iv measured upto 480 mins by LC-MS/MS analysis; format: ADME, organism-based; details: in vivo
Attribute: half-life
PROPERTY_LABEL: half-life (min)

[[record]]
structure_smiles = "COc1cc(OC)c(OC)cc1/C=C/COC(=O)/C=C/c1c(OC)cc(OC)c(OC)c1OC"
property_label = "half-life"
measured_result = 22.8

[[record]]
structure_smiles = "COc1cc(OC)c(OC)cc1/C=C/COC(=O)/C=C/c1cc(OC)c(OC)c(OC)c1OC"
property_label = "half-life"
measured_result = 19.7


---

species: Homo sapiens; assay: Inhibition of human LDH1 at 0.5 mM using sodium pyruvate as substrate by UV-VIS spectrophotometry method relative to control
Active and inactive are the calls of the source. The calls are words filed in the database; no cut-off is given here.
PROPERTY_LABEL: inhibition

[[record]]
structure_smiles = "COc1cc(OC)c(OC)cc1/C=C/COC(=O)/C=C/c1c(OC)c(OC)c(OC)c(OC)c1OC"
property_label = "inhibition"
measured_result = "inactive"

[[record]]
structure_smiles = "COc1cc(OC)c(OC)cc1/C=C/COC(=O)/C=C/c1cc(OC)c(OC)c(OC)c1"
property_label = "inhibition"
measured_result = "10%"

[[record]]
structure_smiles = "COc1cc(OC)c(OC)cc1CCCOC(=O)/C=C/c1cc(OC)c(OC)c(OC)c1"
property_label = "inhibition"
measured_result = "< 5%"

[[record]]
structure_smiles = "COc1ccccc1/C=C/C(=O)OC/C=C/c1cc(OC)c(OC)cc1OC"
property_label = "inhibition"
measured_result = "inactive"

[[record]]
structure_smiles = "COc1cc(OC)c(OC)cc1/C=C/COC(=O)/C=C/c1cc(OC)c(OC)c(OC)c1OC"
property_label = "inhibition"
measured_result = "18%"

[[record]]
structure_smiles = "COc1cc(OC)c(OC)cc1/C=C/COC(=O)/C=C/c1cccc(Br)c1"
property_label = "inhibition"
measured_result = "< 5%"

[[record]]
structure_smiles = "COc1cc(OC)c(OC)cc1/C=C/COC(=O)/C=C/c1cccc(C(F)(F)F)c1"
property_label = "inhibition"
measured_result = "< 5%"

[[record]]
structure_smiles = "COc1cc(/C=C/C(=O)OC/C=C/c2cc(OC)c(OC)cc2OC)cc(OC)c1"
property_label = "inhibition"
measured_result = "inactive"

[[record]]
structure_smiles = "COc1cc(OC)c(OC)cc1/C=C/COC(=O)/C=C/c1ccc(OC)c(OC)c1OC"
property_label = "inhibition"
measured_result = "7%"

[[record]]
structure_smiles = "COc1cc(OC)c(OC)cc1/C=C/COC(=O)/C=C/c1cccc(F)c1"
property_label = "inhibition"
measured_result = "< 5%"

[[record]]
structure_smiles = "COc1cc(OC)c(OC)cc1/C=C/COC(=O)/C=C/c1ccccc1C(F)(F)F"
property_label = "inhibition"
measured_result = "< 5%"

[[record]]
structure_smiles = "COc1cc(OC)c(OC)cc1/C=C/COC(=O)/C=C/c1ccc(F)cc1"
property_label = "inhibition"
measured_result = "< 5%"

[[record]]
structure_smiles = "COc1cc(OC)c(OC)cc1/C=C/COC(=O)/C=C/c1cccc(OC)c1OC"
property_label = "inhibition"
measured_result = "inactive"

[[record]]
structure_smiles = "COc1cccc(/C=C/C(=O)OC/C=C/c2cc(OC)c(OC)cc2OC)c1"
property_label = "inhibition"
measured_result = "inactive"

[[record]]
structure_smiles = "COc1cc(OC)c(OC)cc1/C=C/COC(=O)/C=C/c1ccc(Cl)cc1"
property_label = "inhibition"
measured_result = "< 5%"

[[record]]
structure_smiles = "COc1cc(OC)c(OC)cc1/C=C/COC(=O)/C=C/c1ccc(Br)cc1"
property_label = "inhibition"
measured_result = "< 5%"

[[record]]
structure_smiles = "COc1cc(OC)c(OC)cc1/C=C/COC(=O)/C=C/c1ccccc1Cl"
property_label = "inhibition"
measured_result = "< 5%"

[[record]]
structure_smiles = "COc1cc(OC)c(OC)cc1/C=C/COC(=O)/C=C/c1c(OC)cc(OC)c(OC)c1OC"
property_label = "inhibition"
measured_result = "21%"

[[record]]
structure_smiles = "COc1cc(OC)c(OC)cc1/C=C/COC(=O)/C=C/c1ccccc1Br"
property_label = "inhibition"
measured_result = "< 5%"


---

assay: Tmax in Sprague-Dawley rat at 20 mg/kg, po measured upto 480 mins by LC-MS/MS analysis; format: ADME, organism-based; conditions: in vivo
PROPERTY_LABEL: Tmax (min)

[[record]]
structure_smiles = "COc1cc(OC)c(OC)cc1/C=C/COC(=O)/C=C/c1cc(OC)c(OC)c(OC)c1OC"
measured_result = 35.2

[[record]]
structure_smiles = "COc1cc(OC)c(OC)cc1/C=C/COC(=O)/C=C/c1c(OC)cc(OC)c(OC)c1OC"
measured_result = 37.1


---

assay: Half life in Sprague-Dawley rat at 50 mg/kg, po measured upto 480 mins by LC-MS/MS analysis; assay type: ADME, organism-based; details: in vivo
PROPERTY_LABEL: half-life (min)

[[record]]
structure_smiles = "COc1cc(OC)c(OC)cc1/C=C/COC(=O)/C=C/c1cc(OC)c(OC)c(OC)c1OC"
property_label = "half-life"
unit_of_measure = "min"
measured_result = 58.5

[[record]]
structure_smiles = "COc1cc(OC)c(OC)cc1/C=C/COC(=O)/C=C/c1c(OC)cc(OC)c(OC)c1OC"
property_label = "half-life"
unit_of_measure = "min"
measured_result = 59.2


---

test system: Mus musculus; assay: Anticonvulsant activity in Kunming mouse assessed as reduction in ScPTZ-induced clonic seizure at 100 mg/kg, ip administered 0.5 hrs before ScPTZ stimulation relative to control; type: functional; set-up: scale not given: the % may be the effect or the level left
Attribute: Activity
PROPERTY_LABEL: Activity (%)

[[record]]
structure_smiles = "COc1cc(OC)c(/C=C/C(=O)OC/C=C/c2cc(OC)c(OC)cc2OC)c(OC)c1"
unit_of_measure = "%"
measured_result = 100

[[record]]
structure_smiles = "COc1cc(OC)c(OC)cc1/C=C/COC(=O)/C=C/c1ccc(F)cc1"
unit_of_measure = "%"
measured_result = 100

[[record]]
structure_smiles = "COc1cc(OC)c(OC)cc1/C=C/COC(=O)/C=C/c1cc(OC)c(OC)cc1OC"
unit_of_measure = "%"
measured_result = 100


---

assay: Drug metabolism in Sprague-Dawley rat assessed as retention time by HPLC/MS analysis; type: ADME
Attribute: Retention_time
PROPERTY_LABEL: Retention_time (min)

[[record]]
structure_smiles = "COc1cc(OC)c(OC)cc1/C=C/C(=O)O"
measured_result = 79.8

[[record]]
structure_smiles = "COc1cc(OC)c(OC)cc1/C=C/COC(=O)/C=C/c1c(OC)cc(OC)c(OC)c1OC"
measured_result = 40.6

[[record]]
structure_smiles = "COc1cc(OC)c(OC)cc1/C=C/C(=O)O[C@@H]1O[C@H](C(=O)O)[C@@H](O)[C@H](O)[C@H]1O"
measured_result = 50.1

[[record]]
structure_smiles = "COc1cc(OC)c(OC)cc1/C=C\\C(=O)O"
measured_result = 78.7

[[record]]
structure_smiles = "COc1cc(OC)c(OC)c(OC)c1/C=C/C(=O)O[C@@H]1O[C@H](C(=O)O)[C@@H](O)[C@H](O)[C@H]1O"
measured_result = 55.2

[[record]]
structure_smiles = "COc1cc(OC)c(OC)cc1/C=C/CO"
measured_result = 67.5

[[record]]
structure_smiles = "COc1cc(OC)c(OC)c(OC)c1/C=C/C(=O)O"
measured_result = 81.4

